Source: PubChem BioAssay (NCI)

- Tested on: M14 melanoma
- ASSAY TEXT: NCI tumour cell line growth inhibition, 48 h
Parameter: TGI. Scope: all listed entries.

Would you please look over these solved cases?
MOLECULE	TGI
CN(C)CCn1c(=O)c2ccc3c4c(nn3CCN(C)C)c3cc(O)ccc3n(c1=O)c24	0.846 µM
COC1=CC(=O)c2c(O)c3c(c(O)c2C1=O)C=C(C)OC3O (centres undefined)	0.845 µM
O=C(/C=C/c1ccc(Cl)cc1)c1cccs1	36.3 µM

Under M14 melanoma: TGI value of "CSC1(SC2=NCCN2)SC2(NCCN2)S1" ?
44.3 µM

###

Parameter: TGI. Scope: all listed entries.
- System: EKVX NSCLC
- ASSAY TEXT: NCI tumour cell line growth inhibition, 48 h
Numbers only; they are read as µM.

O=C(CN(/C=C/C(=O)C(F)(F)F)c1ccccc1)c1ccc(Cl)c(Cl)c1 28.8

Here's the next entry for you.
Would you mind telling me what TGI value was observed for "Cn1ccnc1C(=O)/C=C/c1ccc(CC(=O)Nc2ccc(C(F)(F)F)cc2)cc1" ?
8.49
